test target: XIAP BIR3 domain (Homo sapiens, UniProt P98170)
Construct: fluorescent probe 4 and the XIAP BIR3 domain (Sino Biological, Beijing, China) were used for all measurements; purchased Sino Biological, Beijing, China
Sequence (P98170 252-356 limits assumed): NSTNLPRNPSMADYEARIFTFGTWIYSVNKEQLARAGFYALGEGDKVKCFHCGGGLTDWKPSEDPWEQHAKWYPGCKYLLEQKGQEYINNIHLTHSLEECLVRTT
assay remarks: Fluorescence polarization inhibition (competition) assay
Format: binding
assay conditions: XIAP BIR3 50 nM, fluorescent probe 4 2 nM
value type: Ki (µM)

CN[C@@H](C)C(=O)N[C@H](C(=O)N1CCC[C@H]1C(=O)NCP(=O)(C(C)(C)C)C(C)(C)C)C(C)C    14.7
CN[C@@H](C)C(=O)N[C@H](C(=O)N1CCC[C@H]1C(=O)NC(C(C)C)P(=O)(Oc1ccccc1)Oc1ccccc1)C(C)C (stereo partly drawn)    17.4
CN[C@@H](C)C(=O)N[C@H](C(=O)N1CCC[C@H]1C(=O)NCP(=O)(c1cc(C)cc(C)c1)c1cc(C)cc(C)c1)C(C)C    23.8

* * *

System: MDA-MB-231
assay remarks: Antiproliferative activity, SRB method
Type: cell-based, human
assay conditions: Homo sapiens, MDA-MB-231, 72 h, read-out: IC50 ± SD (n = 3) MDA-MB-231
pIC50: −log10 of the molar value.
value type: pIC50

CN[C@@H](C)C(=O)N[C@H](C(=O)N1CCC[C@H]1C(=O)Nc1snnc1-c1ccccc1)C1CCCCC1 [GDC-0152, reference compound]    6.06
CN[C@@H](C)C(=O)N[C@H](C(=O)N1CCC[C@H]1C(=O)NC(Cc1ccccc1)P(=O)(Oc1ccccc1)Oc1ccccc1)C1CCCCC1 (stereo partly drawn)    5.61
CN[C@@H](C)C(=O)N[C@H](C(=O)N1CCC[C@H]1C(=O)NC(Cc1ccccc1)P(=O)(c1ccccc1)c1ccccc1)C(C)C (stereo partly drawn)    5.47
CN[C@@H](C)C(=O)N[C@H](C(=O)N1CCC[C@H]1C(=O)NC(Cc1ccccc1)P(=O)(c1ccccc1)c1ccccc1)C1CCCCC1 (stereo partly drawn)    5.57
CN[C@@H](C)C(=O)N[C@H](C(=O)N1CCC[C@H]1C(=O)NC(Cc1ccccc1)P(=O)(Oc1ccccc1)Oc1ccccc1)C(C)C (stereo partly drawn)    5.59
CN[C@@H](C)C(=O)N[C@H](C(=O)N1CCC[C@H]1c1nc(C(=O)c2ccc(F)cc2)cs1)C1CCCCC1 [LCL-161, reference compound]    6.12

* * *

The entries below are paired with their reported inhibition at 10 µM.
Tested on: UMUC-3
assay remarks: Antiproliferative activity, SRB method
Assay type: cell-based, human
assay conditions: Homo sapiens, UMUC3, 10 µM, 72 h, read-out: mean proliferation inhibition at highest concentration used, UMUC-3
value type: inhibition at 10 µM (%)

CN[C@@H](C)C(=O)N[C@H](C(=O)N1CCC[C@H]1C(=O)NC(Cc1ccccc1)P(=O)(Oc1ccccc1)Oc1ccccc1)C(C)C (stereo partly drawn) [Compound 41]    5
CN[C@@H](C)C(=O)N[C@H](C(=O)N1CCC[C@H]1C(=O)NC(Cc1ccccc1)P(=O)(Oc1ccccc1)Oc1ccccc1)C1CCCCC1 (stereo partly drawn) [Compound 42]    6
CN[C@@H](C)C(=O)N[C@H](C(=O)N1CCC[C@H]1C(=O)NC(Cc1ccccc1)P(=O)(c1ccccc1)c1ccccc1)C(C)C (stereo partly drawn) [Compound 13]    6
CN[C@@H](C)C(=O)N[C@H](C(=O)N1CCC[C@H]1c1nc(C(=O)c2ccc(F)cc2)cs1)C1CCCCC1 [LCL-161, reference compound]    16
CN[C@@H](C)C(=O)N[C@H](C(=O)N1CCC[C@H]1C(=O)NC(Cc1ccccc1)P(=O)(c1ccccc1)c1ccccc1)C1CCCCC1 (stereo partly drawn) [Compound 14]    8
CN[C@@H](C)C(=O)N[C@H](C(=O)N1CCC[C@H]1C(=O)Nc1snnc1-c1ccccc1)C1CCCCC1 [GDC-0152, reference compound]    13

Source listed as paper PMC7497679.
